Molecular target: Neuropeptides B/W receptor type 1 (Homo sapiens)
Assay: GPR7 antagonists, dose response, cell-based, fluorescence, set 4 (AID 588564)
Details: GPR7-expressing cells, fluorescence antagonist assay; run 1
Activity calls are given as the source filed them. Rule as the data show it: active = IC50 below about 10 µM; inactive = the rest.
Can you answer with just one of these options? active, inactive

Cc1ccc(-n2ncc(Cl)c(Cl)c2=O)cc1 | inactive
O=c1c(Oc2ccc(CO)cc2)c(Cl)cnn1Cc1ccc2ccccc2c1 | active
Cc1cc(C)cc(-n2nc(C#N)c(=O)[nH]c2=O)c1 | inactive
Cc1cccc(Cn2ncc(Oc3ccc(CO)cc3)c(Cl)c2=O)c1 | active
COc1ccc(Oc2c(Cl)c(-c3ccc(OC)cc3)nn(Cc3ccccc3C)c2=O)cc1 | active

Data request: Lab log entry: COc1ccc(Oc2c(Cl)cnn(Cc3ccc(-c4ccccc4)cc3)c2=O)cc1 — outcome as called in the assay?
Data returned: active

Data request: Lab log entry: COc1ccc(Oc2c(Cl)cnn(CC3CCCC3)c2=O)cc1 — outcome as called in the assay?
Data returned: active

Data request: Lab log entry: O=c1c(Oc2ccc(CO)cc2)c(Cl)cnn1Cc1cccc2ccccc12 — outcome as called in the assay?
Data returned: active

Data request: Lab log entry: CCCCCCCn1ncc(Cl)c(Oc2ccc(OC)cc2)c1=O — outcome as called in the assay?
Data returned: active

Data request: Lab log entry: COc1ccc(Oc2c(Cl)cnn(C(C(=O)OC(C)C)c3ccccc3Cl)c2=O)cc1 (configuration not stated) — outcome as called in the assay?
Data returned: active

Data request: Lab log entry: CCOc1ccc(Oc2c(N)cnn(Cc3cccc4ccccc34)c2=O)cc1 — outcome as called in the assay?
Data returned: active

Data request: Lab log entry: NCc1ccc(Oc2c(Cl)cnn(Cc3cccc4ccccc34)c2=O)cc1 — outcome as called in the assay?
Data returned: inactive

Data request: Lab log entry: C=Cc1ccc(Cn2ncc(Cl)c(Oc3ccc(OC)cc3)c2=O)cc1 — outcome as called in the assay?
Data returned: active

Data request: Lab log entry: COc1ccc(Oc2c(Cl)cnn(-c3ccc(F)cc3)c2=O)cc1 — outcome as called in the assay?
Data returned: active

Data request: Lab log entry: COc1ccc(Oc2c(Cl)cnn(-c3ccc(OC)cc3)c2=O)cc1 — outcome as called in the assay?
Data returned: active

Data request: Lab log entry: COc1ccc(Oc2c(-c3ccc(C)cc3)c(-c3ccc(C)cc3)nn(Cc3ccccc3C)c2=O)cc1 — outcome as called in the assay?
Data returned: inactive

Data request: Lab log entry: CC(=O)OCc1ccc(Oc2c(Cl)cnn(Cc3cccc4ccccc34)c2=O)cc1 — outcome as called in the assay?
Data returned: active

Data request: Lab log entry: Cc1cc(CN2CCCCC2C(=O)N2CCN(c3ccc([N+](=O)[O-])cc3)CC2)ccc1Cl (configuration not stated) — outcome as called in the assay?
Data returned: active

Data request: Lab log entry: COc1ccc(Oc2c(OC)nn(-c3cccc(C)c3)c(=O)c2Oc2ccc(OC)cc2)cc1 — outcome as called in the assay?
Data returned: inactive

Data request: Lab log entry: COc1ccc(Oc2c(Cl)cnn(Cc3ccc(C(F)(F)F)cc3)c2=O)cc1 — outcome as called in the assay?
Data returned: active

Data request: Lab log entry: COc1ccc(Oc2c(Cl)cnn(Cc3cccc(C)c3)c2=O)cc1 — outcome as called in the assay?
Data returned: active

Data request: Lab log entry: Cc1ccc(-n2ncc(Cl)c(Oc3ccc(O)cc3)c2=O)cc1 — outcome as called in the assay?
Data returned: active

Values from PubChem BioAssay AID588564
